# System: Caco-2
# Assay Comment: Caco-2 permeability
# Format: in vitro ADME
# Setup Conditions: <15 is limit of detection
Marks after values point to notes of the source that are not given here.
Measurement Name: Caco-2 PAP-BL

Query string: Would you kindly share the measured Caco-2 PAP-BL for CC(C)N(C)[C@@H]1CC[C@H](N2CC[C@H](NC(=O)c3cccc(C(F)(F)F)c3)C2=O)[C@H](CS(=O)(=O)C(C)(C)C)C1 [Compound 12] ?
Result string: 30 nm/s

Query string: Would you kindly share the measured Caco-2 PAP-BL for CC(C)N(C)[C@@H]1CC[C@H](N2CC[C@H](NC(=O)c3cccc(C(F)(F)F)c3)C2=O)[C@H](CS(C)(=O)=O)C1 [Compound 2] ?
Result string: <15 nm/s

Query string: Would you kindly share the measured Caco-2 PAP-BL for CC(C)N(C)[C@@H]1CC[C@H](N2CC[C@H](NC(=O)c3cccc(C(F)(F)F)c3)C2=O)[C@H](CS(=O)(=O)C(C)C)C1 [Compound 10] ?
Result string: <15 nm/s

Query string: Would you kindly share the measured Caco-2 PAP-BL for CCS(=O)(=O)C[C@@H]1C[C@H](N(C)C(C)C)CC[C@@H]1N1CC[C@H](NC(=O)c2cccc(C(F)(F)F)c2)C1=O [Compound 8] ?
Result string: <15 nm/s

Query string: Would you kindly share the measured Caco-2 PAP-BL for CC(C)N(C)[C@@H]1CC[C@H](N2CC[C@H](NC(=O)c3cccc(C(F)(F)F)c3)C2=O)[C@H](CS(=O)(=O)c2ccccc2)C1 [Compound 1] ?
Result string: <15 ^e nm/s

====

# Tested On: CCR2 (Homo sapiens)
# Sequence (P41597 whole entry): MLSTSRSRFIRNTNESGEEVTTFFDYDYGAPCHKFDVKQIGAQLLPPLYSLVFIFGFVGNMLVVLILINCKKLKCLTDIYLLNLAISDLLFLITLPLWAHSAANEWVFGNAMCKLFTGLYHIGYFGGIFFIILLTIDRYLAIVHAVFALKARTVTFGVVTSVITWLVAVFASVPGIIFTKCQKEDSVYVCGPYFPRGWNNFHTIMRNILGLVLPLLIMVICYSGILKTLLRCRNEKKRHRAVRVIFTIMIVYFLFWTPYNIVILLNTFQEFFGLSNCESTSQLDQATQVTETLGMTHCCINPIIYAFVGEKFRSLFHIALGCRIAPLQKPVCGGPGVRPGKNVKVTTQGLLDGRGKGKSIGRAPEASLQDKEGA
Measurement Name: IC50 (nM)
Give just the number in nM; leave the unit off.

Query string: Would you kindly share the measured IC50 for CCS(=O)(=O)C[C@@H]1C[C@H](N(C)C(C)C)CC[C@@H]1N1CC[C@H](NC(=O)c2cccc(C(F)(F)F)c2)C1=O [Compound 8] ?
Result string: 1.3
